These entries and their values trace back to ChEMBL document CHEMBL1156797.

Reported pIC50 values are given for each entry in this list.
System: Plasmodium falciparum
Assay: Antimalarial activity against Plasmodium falciparum K1 assessed as [3H]hypoxanthine incorporation by scintillation counting
Type: functional, organism-based
pIC50: −log10 of the molar value.
observed.property: pIC50

INSERT INTO results (chemical_string, qualifier_operator, observed_result) VALUES
  ('COc1ccc2c(c1)C(=O)C(c1ccc(Cl)c(C(F)(F)F)c1)=[N+]2[O-]', '=', 8.30),
  ('COc1ccc2c(c1)C(=O)C(c1cccc(Cl)c1)=[N+]2[O-]', '=', 7.02),
  ('COc1ccc(C2=[N+]([O-])c3ccccc3C2=O)cc1', '=', 6.91),
  ('COc1ccc2c(c1)C(=O)C(c1ccc(Oc3ccccc3)cc1)=[N+]2[O-]', '>', 8.82),
  ('COc1ccc2c(c1)C(=O)C(c1ccc(Cl)cc1)=[N+]2[O-]', '=', 7.23),
  ('COc1ccc2c(c1)C(=O)C(c1ccc(C(F)(F)F)cc1)=[N+]2[O-]', '=', 8.72),
  ('O=C1C(c2ccc(Cl)cc2)=[N+]([O-])c2cc3c(cc21)OCO3', '=', 7.06),
  ('O=C1C(c2ccc(Oc3ccccc3)cc2)=[N+]([O-])c2ccccc21', '=', 7.22);
